Reference source for all entries: paper PMC3896865

Target: EGR1 DB_WT (Zif268 DNA-binding domain) (human, UniProt P18146 331-430)
Experiment: ITC
OBSERVATION TYPE: Kd (nM)
Write the number in nM without appending the unit.

// query Entry under review: ZRE duplex (15-mer) (dsDNA) DNA 1: ATAGCGTGGGCGTTT DNA 2: AAACGCCCACGCTAT . Reported Kd?
// result 271
